method: in vitro
condition parameters: human, uninfected MT-4 cells, CC50 (nM), same protocol as Test A, CellTiter-Glo
Description: For the antiviral assay, 40 μL of 1× test concentration of 3-fold serially diluted compound in culture medium with 10% FBS was added to each well of a 384-well plate (10 concentrations) in quadruplicate. […] Cell lysis was carried out by incubating at room temperature for 10 min and then chemiluminescence was read. […] Compound cytotoxicity and the corresponding CC50 values was determined using the same protocol as described in the antiviral assay (Test A) except that uninfected cells were used.
Criterion: CC50 at 5 days strictly less than 30000 nM. Met: criterion met. Not met: criterion not met.

>>> df
                                   molecule         class_name
0  NC(=O)c1cc(-c2cccnc2[C@H](Cc2cc(F)cc(F)c2)NC(=O)Cn2c(C(F)(F)F)cc3ccccc32)ccc1F  criterion not met

Given the entry `NC(=O)c1cc(-c2cccnc2[C@H](Cc2cc(F)cc(F)c2)NC(=O)Cc2c[nH]c3ccc(O)cc23)ccc1Cl` , would its reported CC50 at 5 days be below 30000 nM? criterion not met

CC50 at 5 days under 30000 nM? Item: `NC(=O)c1cc(-c2cccnc2[C@H](Cc2cc(F)cc(F)c2)NC(=O)Cn2nc(C(F)F)c3c2C(=O)CCC3)ccc1F` criterion met

Data origin: patent US9540343B2
